# Tested on: JAK-STAT signalling in HeLa cells
# ASSAY COMMENT: JAK-STAT signalling assay (OSM-triggered pSTAT1(2)-luciferase reporter in HeLa cells)
# Assay type: cell-based
# EXPERIMENTAL SETUP: Homo sapiens; HeLa cells, OSM-triggered pSTAT1(2)-luciferase reporter; read-out: STAT signalling EC50
MEASURE NAME: EC50

Worked examples, 3 compounds total:
>>> result("O=C(Nc1nc2cccc(-c3ccc(CN4CCCC(F)C4)cc3)n2n1)C1CC1 (centres unmarked)")
"0.501 to 1 µM"
>>> result("Cc1ccc(C(N)=O)cc1NCc1ccc(-c2cccc3nc(NC(=O)C4CC4)nn23)cc1")
"> 1 µM"
>>> result("N#CCc1ccccc1NCc1ccc(-c2cccc3nc(NC(=O)C4CC4)nn23)cc1")
"0.101 to 0.5 µM"

Exam item: Consider the compound `O=C(Nc1nc2cccc(-c3cnn(Cc4ccccc4)c3)n2n1)C1CC1` . State its measured EC50.
Marked response: > 1 µM

Exam item: For O=C(Nc1nc2cccc(-c3ccc(C(=O)N4CCCC(O)C4)cc3)n2n1)C1CC1 (centres unmarked) , write its EC50.
Marked response: > 1 µM

Exam item: Quote EC50 reported for `O=C(Nc1nc2cccc(-c3ccc(OCc4ccc(C(F)(F)F)nc4)cc3)n2n1)C1CC1` please.
Marked response: > 1 µM

Exam item: Output measured EC50 for this item: `CN1CCN(C(=O)c2ccc(-c3cccc4nc(NC(=O)C5CC5)nn34)cc2)CC1`
Marked response: > 1 µM

Exam item: Let me know recorded EC50 for `CC1(C)CCCN(C(=O)c2ccc(-c3cccc4nc(NC(=O)C5CC5)nn34)cc2)C1` , thanks.
Marked response: 0.501 to 1 µM

Exam item: Indicate its recorded EC50; the compound in question is `O=C(Nc1nc2cccc(-c3ccc(OCc4ccc(-n5cccn5)cc4)cc3)n2n1)C1CC1`
Marked response: > 1 µM

Exam item: State, in one line, measured EC50 of `N#Cc1ccc(COC2CN(c3ccc(-c4cccc5nc(NC(=O)C6CC6)nn45)cc3)C2)cc1`
Marked response: > 1 µM

Exam item: Give EC50 for the following compound: `O=C(NCCCc1ccccc1)c1ccc(-c2cccc3nc(NC(=O)C4CC4)nn23)cc1`
Marked response: > 1 µM

----------
Reported EC50 values follow for various molecules
# Test system: MMP13 in SW1353 cells
# ASSAY COMMENT: OSM/IL-1β signaling assay (MMP13 levels in SW1353 cells);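 also: secreted MMP13 captured by antibody, activated with APMA and its activity read by fluorescence, inhibition scaled between vehicle-treated triggered wells (0%) and untriggered wells (100%)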
# Format: cell-based
# EXPERIMENTAL SETUP: Homo sapiens; SW1353 cells, OSM and IL-1β triggered, MMP13 levels 48 hours after triggering; read-out: MMP13 EC50

// solved cases for EC50 follow
>>> result("O=C(Nc1cccnn1)c1ccc(-c2cccc3nc(NC(=O)C4CC4)nn23)cc1 [Compound 221]")
"> 1000 nM"
>>> result("O=C(Nc1nc2cccc(-c3ccc(NCc4ccccc4)cc3)n2n1)C1CC1 [Compound 72]")
"501 to 1000 nM"
>>> result("O=C(NCCOc1ccccc1)c1ccc(-c2cccc3nc(NC(=O)C4CC4)nn23)cc1 [Compound 60]")
"501 to 1000 nM"

Exam item: Fetch value of EC50 on MMP13 in SW1353 cells for Cc1noc(C)c1COc1ccc(-c2cccc3nc(NC(=O)C4CC4)nn23)cc1 [Compound 49] .
Marked response: > 1000 nM

----------
# System: JAK-STAT signalling in HeLa cells
# ASSAY COMMENT: JAK-STAT signalling assay (OSM-triggered pSTAT1(2)-luciferase reporter in HeLa cells)
# Assay type: cell-based
# EXPERIMENTAL SETUP: Homo sapiens; HeLa cells, OSM-triggered pSTAT1(2)-luciferase reporter; read-out: STAT signalling EC50
# Description: HeLa cells were maintained in Dulbecco's Modified Eagle's Medium (DMEM) containing 10% heat inactivated fetal calf serum, 100 U/mL penicillin and 100 μg/mL streptomycin. HeLa cells were used at 70% confluence for transfection. […] 40 μL of cell lysate was used to read β-galactosidase activity by adding 180 μL βGal solution (30 μl ONPG 4 mg/mL+150 μL β-Galactosidase buffer (0.06 M Na2HPO4, 0.04 M NaH2PO4, 1 mM MgCl2)) for 20 min. […]
EC50 listing for selected compounds.

# annotated cases, reported EC50 shown
>>> result("O=C(Nc1nc2cccc(-c3ccc(CN4CCC(F)CC4)cc3)n2n1)C1CC1 [Compound 233]")
"> 1000 nM"
>>> result("N#CC1CN(Cc2ccc(-c3cccc4nc(NC(=O)C5CC5)nn34)cc2)C1 [Compound 303]")
"501 to 1000 nM"
>>> result("O=C(Nc1nc2cccc(-c3ccc(CNc4cccnn4)cc3)n2n1)C1CC1 [Compound 222]")
"> 1000 nM"

Exam item: Fill in: EC50 on JAK-STAT signalling in HeLa cells, entry O=C(CCOc1ccccc1)Nc1ccc(-c2cccc3nc(NC(=O)C4CC4)nn23)cc1 [Compound 108]
Marked response: 501 to 1000 nM

Exam item: Report EC50 under test system JAK-STAT signalling in HeLa cells for N#CC1(C(=O)Nc2ccc(-c3cccc4nc(NC(=O)C5CC5)nn34)cc2)CC1 [Compound 177] .
Marked response: > 1000 nM

Exam item: // fetch EC50; item: CC1CN(C(=O)c2ccc(-c3cccc4nc(NC(=O)C5CC5)nn34)cc2)CC(C)O1 (centres unmarked) [Compound 215] ; system: JAK-STAT signalling in HeLa cells
Marked response: 101 to 500 nM

Exam item: Enter measured EC50, system JAK-STAT signalling in HeLa cells, for the compound shown: O=C(Nc1nc2cccc(-c3ccc(NS(=O)(=O)c4ccccc4F)cc3)n2n1)C1CC1 [Compound 54]
Marked response: > 1000 nM

Exam item: Look up and report measured EC50 (JAK-STAT signalling in HeLa cells) for the following compound: O=C(Nc1nc2cccc(-c3ccc(OCc4ccc(-c5nnn[nH]5)nc4)cc3)n2n1)C1CC1 [Compound 183]
Marked response: > 1000 nM

----------
Known EC50 of a selection of compounds
# Tested on: JAK-STAT signalling in HeLa cells
# ASSAY COMMENT: JAK-STAT signalling assay (OSM-triggered pSTAT1(2)-luciferase reporter in HeLa cells)
# Format: cell-based
# EXPERIMENTAL SETUP: Homo sapiens; HeLa cells, OSM-triggered pSTAT1(2)-luciferase reporter; read-out: STAT signalling EC50
# Experimental: HeLa cells were maintained in Dulbecco's Modified Eagle's Medium (DMEM) containing 10% heat inactivated fetal calf serum, 100 U/mL penicillin and 100 μg/mL streptomycin. HeLa cells were used at 70% confluence for transfection. […] 40 μL of cell lysate was used to read β-galactosidase activity by adding 180 μL βGal solution (30 μl ONPG 4 mg/mL+150 μL β-Galactosidase buffer (0.06 M Na2HPO4, 0.04 M NaH2PO4, 1 mM MgCl2)) for 20 min. […]

Use the examples below as a reference point.
>>> result("CN(C)C1CCCN(C(=O)c2ccc(-c3cccc4nc(NC(=O)C5CC5)nn34)cc2)C1 (centres unmarked)")
"> 1000 nM"
>>> result("O=C(Nc1nc2cccc(-c3ccc(CNc4c(F)cccc4F)cc3)n2n1)C1CC1")
"101 to 500 nM"
>>> result("O=C(Nc1nc2cccc(-c3ccc(OCc4ccccc4)nc3)n2n1)C1CC1")
"> 1000 nM"
>>> result("CC1(C)CN(C(=O)c2ccc(-c3cccc4nc(NC(=O)C5CC5)nn34)cc2)C1")
"1 to 100 nM"
>>> result("O=C(NCc1ccc(-c2cccc3nc(NC(=O)C4CC4)nn23)cc1)C1CCC1")
"> 1000 nM"
>>> result("Cn1cnc(COc2ccc(-c3cccc4nc(NC(=O)C5CC5)nn34)cc2)n1")
"> 1000 nM"
>>> result("O=C(Nc1nc2cccc(-c3ccc(C(=O)N4CCCC(C(F)(F)F)C4)cc3)n2n1)C1CC1 (centres unmarked)")
"> 1000 nM"
>>> result("CN(C(=O)c1ccc(-c2cccc3nc(NC(=O)C4CC4)nn23)cc1)C1CCS(=O)(=O)C1 (centres unmarked)")
"> 1000 nM"

Exam item: Identify the reported EC50 for the following entry. `O=C(Nc1cccnn1)c1ccc(-c2cccc3nc(NC(=O)C4CC4)nn23)cc1`
Marked response: > 1000 nM

Exam item: Provide one value: measured EC50 of `COc1ccc(CN(C)C(=O)c2ccc(-c3cccc4nc(NC(=O)C5CC5)nn34)cc2)cc1`
Marked response: > 1000 nM

Exam item: Identify EC50 associated with the compound `N#Cc1ccc(COC2CN(C(=O)c3ccc(-c4cccc5nc(NC(=O)C6CC6)nn45)cc3)C2)cc1`
Marked response: 501 to 1000 nM

Exam item: # return recorded EC50 for input `O=C(NCCc1ccccc1)c1ccc(-c2cccc3nc(NC(=O)C4CC4)nn23)c(F)c1`
Marked response: 501 to 1000 nM

Exam item: In one line, give reported EC50 of the entry `O=C(Nc1nc2cccc(-c3ccc(OCC4CCC4)cc3)n2n1)C1CC1` .
Marked response: > 1000 nM

Exam item: Report measured EC50; entry is `O=C(Nc1nc2cccc(-c3ccc(OCCn4cccn4)cc3)n2n1)C1CC1`
Marked response: > 1000 nM

Exam item: Give me measured EC50, please, for this compound: `O=C(Nc1nc2cccc(-c3ccc(C(=O)N4CCCN(Cc5ccccc5)CC4)cc3)n2n1)C1CC1`
Marked response: > 1000 nM

Exam item: Report measured EC50; entry is `CN(C)CC1CN(C(=O)c2ccc(-c3cccc4nc(NC(=O)C5CC5)nn34)cc2)C1`
Marked response: > 1000 nM

Exam item: Given the compound `N#Cc1ccc(-c2ccc(-c3cccc4nc(NC(=O)C5CC5)nn34)cc2)cn1` , write its reported EC50.
Marked response: > 1000 nM
